test: Selectivity index, ratio of CC50 for human CEM cells to EC50 for HIV-2 ROD infected in thymidine kinase-deficient human CEM cells; type: toxicity; conditions: read-out: Ratio CC50/EC50
Endpoint name: selectivity ratio

[in] Return selectivity ratio for the following molecule: CCCCCCCCCCCCCCCCCCP(=O)(OCC(CC)CCCC)OP(=O)(O)OP(=O)(O)OC[C@@H]1C=C[C@H](n2cc(C)c(=O)[nH]c2=O)O1.N.N (some centres undefined)
[out] 175

[in] Note selectivity ratio for the molecule shown: Cc1cn([C@H]2C=C[C@@H](CO)O2)c(=O)[nH]c1=O
[out] > 1

[in] Provide measured selectivity ratio value, entry: CCCCCCCCCCCCCCCCCCOP(=O)(OCCCC)OP(=O)(O)OC[C@@H]1C=C[C@H](n2cc(C)c(=O)[nH]c2=O)O1.N (some centres undefined)
[out] 37500

[in] Annotate the molecule CCCCCCCCCCCCCCCCCCP(=O)(OC)OP(=O)(O)OP(=O)(O)OC[C@@H]1C=C[C@H](n2cc(C)c(=O)[nH]c2=O)O1.N.N (some centres undefined) with its measured selectivity ratio.
[out] 83

* * *

experiment: Retention time of the compound by HPLC analysis; type: physicochemical
Endpoint name: Retention_time (min)
Numeric answer only, unit min assumed.

[in] State its Retention_time: CCCCCCCCCCCCCCCCCCP(=O)(OCCCCCCCCCCCC)OP(=O)(O)OP(=O)(O)OC[C@@H]1C=C[C@H](n2cc(C)c(=O)[nH]c2=O)O1.N.N (some centres undefined)
[out] 18.9

[in] Look up and state reported Retention_time for CCCCCCCCCCCCCCCCCCOP(=O)(OCCCC)OP(=O)(O)OP(=O)(O)OC[C@@H]1C=C[C@H](n2cc(C)c(=O)[nH]c2=O)O1.N.N (some centres undefined)
[out] 16.2

[in] Respond only with Retention_time recorded for CCCCCCCCCCCC(=O)Oc1ccc(COP(=O)(OCCCC)OP(=O)(O)OC[C@@H]2C=C[C@H](n3cc(C)c(=O)[nH]c3=O)O2)cc1.N (some centres undefined)
[out] 16.6

[in] Give reported Retention_time value for CCCCCCCCCCCCCCCCCCOP(=O)(OC)OP(=O)(O)OP(=O)(O)OC[C@@H]1C=C[C@H](n2cc(C)c(=O)[nH]c2=O)O1.N.N (some centres undefined)
[out] 15.6

[in] Output Retention_time of CCCCCCCCCCCCOP(=O)(OCc1ccc(OC(=O)CCCC)cc1)OP(=O)(O)OC[C@@H]1C=C[C@H](n2cc(C)c(=O)[nH]c2=O)O1.N (some centres undefined)
[out] 16.6

[in] Complete the entry with Retention_time for CCCCCCCCCCCCCCCCCCP(=O)(OCc1ccc(OC(=O)CCCC)cc1)OP(=O)(O)OC[C@@H]1C=C[C@H](n2cc(C)c(=O)[nH]c2=O)O1.N (some centres undefined)
[out] 20

[in] Give the reported value of Retention_time for this record: CCCCC(=O)Oc1ccc(COP(=O)(OC)OP(=O)(O)OC[C@@H]2C=C[C@H](n3cc(C)c(=O)[nH]c3=O)O2)cc1.N (some centres undefined)
[out] 11.3

[in] Answer with reported Retention_time of CCCCCCCCCCCCOP(=O)(OCc1ccc(OC(=O)CCCCCCCCCCC)cc1)OP(=O)(O)OC[C@@H]1C=C[C@H](n2cc(C)c(=O)[nH]c2=O)O1.N (some centres undefined)
[out] 20.9

[in] Indicate its recorded Retention_time; the molecule in question is COP(=O)(O)OP(=O)(O)OC[C@@H]1C=C[C@H](n2cc(C)c(=O)[nH]c2=O)O1.N.N
[out] 8.9

[in] Item CCCCCCCCCCCCCCCCCCP(=O)(OCCCC)OP(=O)(O)OC[C@@H]1C=C[C@H](n2cc(C)c(=O)[nH]c2=O)O1.N (some centres undefined) : provide Retention_time
[out] 18.5

[in] Hello, please tell me recorded Retention_time for this one: CCCCCCCCCCCCP(=O)(OCc1ccc(OC(=O)CCCCCCCCCCC)cc1)OP(=O)(O)OC[C@@H]1C=C[C@H](n2cc(C)c(=O)[nH]c2=O)O1.N (some centres undefined)
[out] 20.6

[in] Let me know recorded Retention_time for CCCCCCCCCCCCCCCCCCP(=O)(OCCCC)OP(=O)(O)OP(=O)(O)OC[C@@H]1C=C[C@H](n2cc(C)c(=O)[nH]c2=O)O1.N.N (some centres undefined) , thanks.
[out] 15.9

[in] Look up Retention_time of CCCCCCCCCCCCP(=O)(OCc1ccc(OC(=O)CCCC)cc1)OP(=O)(O)OC[C@@H]1C=C[C@H](n2cc(C)c(=O)[nH]c2=O)O1.N (some centres undefined) and report it.
[out] 16.3

[in] Return the recorded Retention_time value; entry: CCCCCCCCCCCCCCCCCCOP(=O)(OCc1ccc(OC(=O)CCCC)cc1)OP(=O)(O)OC[C@@H]1C=C[C@H](n2cc(C)c(=O)[nH]c2=O)O1.N (some centres undefined)
[out] 20.3

[in] Please give measured Retention_time of the following entry: CCCCOP(=O)(OCc1ccc(OC(=O)CCCC)cc1)OP(=O)(O)OC[C@@H]1C=C[C@H](n2cc(C)c(=O)[nH]c2=O)O1.N (some centres undefined)
[out] 12.5

[in] Tell us which Retention_time value is on record for CCCCCCCCCCCCCCCCCCOP(=O)(OCCCC)OP(=O)(O)OC[C@@H]1C=C[C@H](n2cc(C)c(=O)[nH]c2=O)O1.N (some centres undefined)
[out] 18.9

[in] Give a short answer stating reported Retention_time for CCCCOP(=O)(O)OP(=O)(O)OC[C@@H]1C=C[C@H](n2cc(C)c(=O)[nH]c2=O)O1.N.N .
[out] 9.4

[in] Identify Retention_time associated with the molecule CCCCCCCCCCCCOP(=O)(O)OP(=O)(O)OC[C@@H]1C=C[C@H](n2cc(C)c(=O)[nH]c2=O)O1.N.N
[out] 12.6

[in] Check the records and state Retention_time for CCCCCCCCCCCCP(=O)(O)OP(=O)(O)OC[C@@H]1C=C[C@H](n2cc(C)c(=O)[nH]c2=O)O1.N.N
[out] 12.3

[in] Please report the measured Retention_time for CCCCCCCCCCCCCCCCCCP(=O)(OCC(CC)CCCC)OP(=O)(O)OP(=O)(O)OC[C@@H]1C=C[C@H](n2cc(C)c(=O)[nH]c2=O)O1.N.N (some centres undefined)
[out] 17.1

[in] Fill in Retention_time for record CCCCCCCCCCCCCCCCCCOP(=O)(OCCCCCCCC)OP(=O)(O)OC[C@@H]1C=C[C@H](n2cc(C)c(=O)[nH]c2=O)O1.N (some centres undefined)
[out] 20.8

[in] Note down Retention_time recorded for CCCCCCCCCCCCCCCCCCOP(=O)(O)OP(=O)(O)OC[C@@H]1C=C[C@H](n2cc(C)c(=O)[nH]c2=O)O1.N.N
[out] 15.1

[in] Fill in reported Retention_time for this entry: CCCCCCCCCCCCCCCCCCP(=O)(OC)OP(=O)(O)OP(=O)(O)OC[C@@H]1C=C[C@H](n2cc(C)c(=O)[nH]c2=O)O1.N.N (some centres undefined)
[out] 15.2

[in] Identify Retention_time associated with the molecule CCCCCCCCCCCCCCCCCCOP(=O)(OCC(CC)CCCC)OP(=O)(O)OP(=O)(O)OC[C@@H]1C=C[C@H](n2cc(C)c(=O)[nH]c2=O)O1.N.N (some centres undefined)
[out] 17.3

* * *

Exercise: state measured t1/2 for each of the compounds provided.
test: Prodrug conversion in human CEM/0 cell extract assessed as metabolite formation by measuring half life by HPLC analysis; format: ADME; details: ccrf-cem

[in] // Input: CCCCOP(=O)(OCc1ccc(OC(=O)CCCC)cc1)OP(=O)(O)OC[C@@H]1C=C[C@H](n2cc(C)c(=O)[nH]c2=O)O1.N (some centres not stated) . Output its t1/2 only.
[out] 0.36 h

[in] Please report the measured t1/2 for CCCCCCCCCCCCCCCCCCP(=O)(OCCCC)OP(=O)(O)OP(=O)(O)OC[C@@H]1C=C[C@H](n2cc(C)c(=O)[nH]c2=O)O1.N.N (some centres not stated)
[out] > 15 h

[in] Fill in t1/2 for record CCCCCCCCCCCCCCCCCCOP(=O)(OC)OP(=O)(O)OP(=O)(O)OC[C@@H]1C=C[C@H](n2cc(C)c(=O)[nH]c2=O)O1.N.N (some centres not stated)
[out] > 15 h

[in] Give me measured t1/2, please, for this compound: CCCCCCCCCCCCP(=O)(O)OP(=O)(O)OC[C@@H]1C=C[C@H](n2cc(C)c(=O)[nH]c2=O)O1.N.N
[out] > 30 h

[in] Tell me its t1/2 given CCCCCCCCCCCCCCCCCCOP(=O)(O)OP(=O)(O)OC[C@@H]1C=C[C@H](n2cc(C)c(=O)[nH]c2=O)O1.N.N as the entry.
[out] > 13 h

[in] For CCCCCCCCCCCCP(=O)(OCc1ccc(OC(=O)CCCCCCCCCCC)cc1)OP(=O)(O)OC[C@@H]1C=C[C@H](n2cc(C)c(=O)[nH]c2=O)O1.N (some centres not stated) , write its t1/2.
[out] 3 h

[in] Give the reported value of t1/2 for this record: CCCCCCCCCCCCCCCCCCOP(=O)(OCCCC)OP(=O)(O)OC[C@@H]1C=C[C@H](n2cc(C)c(=O)[nH]c2=O)O1.N (some centres not stated)
[out] > 18 h
